All figures here come from patent US20090297535A1.

biological target: T1, recombinant human IL6 (human, UniProt P05231 30-212); experiment: SPR, Biacore 3000; IL6 amine-coupled on CM5 chip, periplasmic extract injected
T1 construct: Amine-coupled to a CM5 chip in the Biacore assay; used biotinylated in the Alphascreen assays; also called interleukin-6; biotinylated human IL6
READOUT LABEL: koff
I'd appreciate it if you wrote the number followed by its unit.

Solved cases below.
BINDER	koff
PMP21C12 (VHH, Monovalent Nanobody) VHH: AVQLVESGGGLVQPGGSLRLSCAASGSITGINPMGWYRQAPGKQRELVARIHGSITNYADSVKGRFTISRDIAKNTAYLQMNSLKPEDTAVYYCNARRWGYDYWGQGAQVTVSS	0.000897 s⁻¹
PMP6B6 (VHH, Monovalent Nanobody) VHH: QVQLVESAGGLVQPGGSLRLSCAASGIIFSINAMGWYRQAPGKRRELVADIMPYGSTEYADSVKGRFTISRDNAKNTVYLQMNSLKPEDTAVYYCHSYDPRGDDYWGQGTQVTVSS	0.000433 s⁻¹
PMP10C4 (VHH, Monovalent Nanobody) VHH: AVQLVDSGGGLVQAGGSLRLSCAASGRSFSNYHMVWFRQAPGKEREFVAAASGSTSSTYYADSVKGRFTISRDNAKNTVYLQMNSLKPEDTAVYYCAAVAGLLLPRVAEGMDYWGKGTLVTVSS	0.00082 s⁻¹
PMP20G9 (VHH, Monovalent Nanobody) VHH: QVQLVESGGGLVQAGGSLRLSCAASGRTFSPYTVGWFRQPPGKVREFVGRINWSGIRNYADSVKGRFTISRDNNNNTVYLQMNRLKPEDTAVYYCAAASQSGSGYDSWGQGTQVTVSS	0.000318 s⁻¹
PMP7G5 (VHH, Monovalent Nanobody) VHH: QVKLEESGGGLVQPGGSLRLSCAASGSISRFNIMGWYRQAPGKQRELVADITNGGTTMYADSVKGRFTISRDNTKNTVYLQMNSLKPEDTAVYYCHTYYPTTGFDDWGQGAQVTVSS	0.000412 s⁻¹

Now, please, on to the next binder.
Exercise: Bench note: what koff did PMP6E9 (VHH, Monovalent Nanobody) VHH: EVQLVESGGGLVQAGGSLRLSCAASGRTFSSYPMGWFRQAPGKERKFVAGISQSSSSTAYSDSVKGRFTISRENAKNTVYLQMNSLKPEDTAVYYCAARGRTLALRDYAYTTEVGYDDWGQGTQVTVSS show?
Key: 0.000631 s⁻¹
